Biological target: ATP-dependent translocase ABCB1 (Homo sapiens, UniProt P08183)
Sequence (P08183 whole entry): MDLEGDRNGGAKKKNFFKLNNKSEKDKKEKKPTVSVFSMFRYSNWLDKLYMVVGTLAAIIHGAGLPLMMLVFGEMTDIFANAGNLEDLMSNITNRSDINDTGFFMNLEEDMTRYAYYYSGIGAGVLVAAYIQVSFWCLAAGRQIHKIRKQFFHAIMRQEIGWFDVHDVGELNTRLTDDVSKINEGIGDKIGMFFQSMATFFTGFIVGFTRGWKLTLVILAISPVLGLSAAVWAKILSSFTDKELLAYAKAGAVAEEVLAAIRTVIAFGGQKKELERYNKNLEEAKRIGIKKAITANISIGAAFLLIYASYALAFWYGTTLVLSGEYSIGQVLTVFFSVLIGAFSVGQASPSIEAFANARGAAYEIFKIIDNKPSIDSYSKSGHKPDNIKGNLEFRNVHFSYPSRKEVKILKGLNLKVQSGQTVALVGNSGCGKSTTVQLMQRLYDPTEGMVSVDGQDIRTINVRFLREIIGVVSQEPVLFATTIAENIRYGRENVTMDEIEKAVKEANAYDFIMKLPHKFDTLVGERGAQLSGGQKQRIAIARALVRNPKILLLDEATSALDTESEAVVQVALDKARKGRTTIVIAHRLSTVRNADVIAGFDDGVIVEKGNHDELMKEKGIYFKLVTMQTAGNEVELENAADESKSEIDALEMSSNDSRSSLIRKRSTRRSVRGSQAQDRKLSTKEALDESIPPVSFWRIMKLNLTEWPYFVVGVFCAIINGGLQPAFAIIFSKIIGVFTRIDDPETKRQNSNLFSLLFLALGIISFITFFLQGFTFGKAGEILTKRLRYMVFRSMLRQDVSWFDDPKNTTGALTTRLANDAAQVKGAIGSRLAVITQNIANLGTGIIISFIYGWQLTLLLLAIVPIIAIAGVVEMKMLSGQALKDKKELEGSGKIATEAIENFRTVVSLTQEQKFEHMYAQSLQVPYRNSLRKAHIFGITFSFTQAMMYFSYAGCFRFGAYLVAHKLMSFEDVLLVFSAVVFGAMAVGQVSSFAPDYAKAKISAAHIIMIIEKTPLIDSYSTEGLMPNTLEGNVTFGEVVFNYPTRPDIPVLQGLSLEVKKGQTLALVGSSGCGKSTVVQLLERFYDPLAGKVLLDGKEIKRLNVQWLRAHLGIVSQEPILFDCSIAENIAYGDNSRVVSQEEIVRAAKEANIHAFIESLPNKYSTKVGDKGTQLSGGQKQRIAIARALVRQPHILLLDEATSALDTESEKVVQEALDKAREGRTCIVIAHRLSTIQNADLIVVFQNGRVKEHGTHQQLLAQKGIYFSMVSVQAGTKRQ
Experiment: Inhibition of P-gp in human K562/DOX cells assessed as drug level causing 50% increase in nuclear pirarubicin concentration incubated for 30 mins by fluorescence based assay
Format: cell-based
Conditions: read-out: I0.5
readout_kind: IC50 (nM)

In [3]: df
Out[3]:
                               input_smiles  observed
0  COc1cc(/C=C/C(=O)OC[C@@H](C)CN(C)CCCCCOC(=O)c2c3ccccc3cc3ccccc23)cc(OC)c1OC        30

a. COc1cc(/C=C/C(=O)OCCCN(C)C[C@@H](C)COC(=O)c2c3ccccc3cc3ccccc23)cc(OC)c1OC
b. COc1cc(/C=C/C(=O)OCCCN(C)C[C@H](C)COC(=O)c2cc(OC)c(OC)c(OC)c2)cc(OC)c1OC
Task: Would you let me know which has the greater IC50 value, a or b ? Answer format: the label of the selected item.
Result: b

1. COc1cc(/C=C/C(=O)OC[C@H](C)CN(C)CCCOC(=O)c2cc(OC)c(OC)c(OC)c2)cc(OC)c1OC
2. COc1cc(/C=C/C(=O)OC[C@@H](C)CN(C)CCCCCCCOC(=O)c2c3ccccc3cc3ccccc23)cc(OC)c1OC
Task: Between 1 and 2 , which one shows the larger IC50 value? Return value: the label identifying the chosen record.
Result: 2
(2: 890 nM, 1: 140 nM)

I. COc1cc(/C=C/C(=O)OC[C@@H](C)CN(C)CCCCCOC(=O)c2cc(OC)c(OC)c(OC)c2)cc(OC)c1OC
II. COc1cc(/C=C/C(=O)OCCCCCCCN(C)C[C@@H](C)COC(=O)c2cc(OC)c(OC)c(OC)c2)cc(OC)c1OC
Task: Given I and given II , which shows the smaller recorded IC50? // respond with label for picked entry
Result: I
(I: 80 nM, II: 120 nM)

P. COc1cc(/C=C/C(=O)OCCCCCN(C)C[C@H](C)COC(=O)c2cc(OC)c(OC)c(OC)c2)cc(OC)c1OC
Q. COc1cc(/C=C/C(=O)OC[C@H](C)CN(C)CCCCCOC(=O)c2c3ccccc3cc3ccccc23)cc(OC)c1OC
R. COc1cc(/C=C/C(=O)OCCCCCCCN(C)C[C@H](C)COC(=O)c2cc(OC)c(OC)c(OC)c2)cc(OC)c1OC
S. COc1cc(/C=C/C(=O)OC[C@@H](C)CN(C)CCCCCCCOC(=O)c2cc(OC)c(OC)c(OC)c2)cc(OC)c1OC
T. COc1cc(/C=C/C(=O)OCCCN(C)C[C@H](C)COC(=O)c2c3ccccc3cc3ccccc23)cc(OC)c1OC
Task: Endpoint returns the given molecules ordered by ascending IC50. Answer by listing the labels in the requested order.
Result: T, Q, R, P, S
(T: 40 nM, Q: 80 nM, R: 130 nM, P: 240 nM, S: 380 nM)

a. COc1cc(/C=C/C(=O)OCCCCCN(C)C[C@@H](C)COC(=O)c2c3ccccc3cc3ccccc23)cc(OC)c1OC
b. COc1cc(/C=C/C(=O)OCCCN(C)C[C@@H](C)COC(=O)c2cc(OC)c(OC)c(OC)c2)cc(OC)c1OC
Task: Please let me know which one, a or b , has a lower measured IC50 value. API: response body contains the label of the selected item.
Result: b

I. COc1cc(/C=C/C(=O)OC[C@@H](C)CN(C)CCCOC(=O)c2c3ccccc3cc3ccccc23)cc(OC)c1OC
II. COc1cc(/C=C/C(=O)OC[C@H](C)CN(C)CCCOC(=O)c2c3ccccc3cc3ccccc23)cc(OC)c1OC
Task: Of the two listed items, I and II , which carries the larger IC50 figure? Respond with the label that goes with your answer.
Result: I

====

Target: ATP-dependent translocase ABCB1 (Homo sapiens)
Assay: Inhibition of P-gp in human K562/DOX cells assessed as drug level causing maximum increase in nuclear pirarubicin concentration incubated for 30 mins by fluorescence based assay relative to control
Type: cell-based
Settings: 0.5 h
readout_kind: Alpha max

In [3]: df
Out[3]:
                                input_smiles  observed
 0  COc1cc(/C=C/C(=O)OC[C@@H](C)CN(C)CCCOC(=O)c2cc(OC)c(OC)c(OC)c2)cc(OC)c1OC      0.75
 1  COc1cc(/C=C/C(=O)OC[C@@H](C)CN(C)CCCCCOC(=O)c2c3ccccc3cc3ccccc23)cc(OC)c1OC      0.79
 2  COc1cc(/C=C/C(=O)OCCCCCCCN(C)C[C@@H](C)COC(=O)c2cc(OC)c(OC)c(OC)c2)cc(OC)c1OC      0.83
 3  COc1cc(/C=C/C(=O)OCCCCCCCN(C)C[C@@H](C)COC(=O)c2c3ccccc3cc3ccccc23)cc(OC)c1OC      0.93
 4  COc1cc(/C=C/C(=O)OCCCN(C)C[C@H](C)COC(=O)c2c3ccccc3cc3ccccc23)cc(OC)c1OC      0.99
 5  COc1cc(/C=C/C(=O)OCCCN(C)C[C@H](C)COC(=O)c2cc(OC)c(OC)c(OC)c2)cc(OC)c1OC      0.89
 6  COc1cc(/C=C/C(=O)OC[C@H](C)CN(C)CCCCCCCOC(=O)c2c3ccccc3cc3ccccc23)cc(OC)c1OC      0.65
 7  COc1cc(/C=C/C(=O)OC[C@H](C)CN(C)CCCCCOC(=O)c2c3ccccc3cc3ccccc23)cc(OC)c1OC      0.88
 8  COc1cc(/C=C/C(=O)OCCCCCN(C)C[C@@H](C)COC(=O)c2cc(OC)c(OC)c(OC)c2)cc(OC)c1OC      0.72
 9  COc1cc(/C=C/C(=O)OC[C@@H](C)CN(C)CCCCCCCOC(=O)c2cc(OC)c(OC)c(OC)c2)cc(OC)c1OC      0.74
10  COc1cc(/C=C/C(=O)OCCCN(C)C[C@@H](C)COC(=O)c2c3ccccc3cc3ccccc23)cc(OC)c1OC       0.8
11  COc1cc(/C=C/C(=O)OC[C@@H](C)CN(C)CCCCCCCOC(=O)c2c3ccccc3cc3ccccc23)cc(OC)c1OC       0.8

====

Experiment: Stability of compound in human plasma assessed as half life at 1 uM incubated for 120 min by LC-MS/MS analysis
Type: ADME, cell-free
The entries below come with measured half-life at 1 µM values attached.

Task: Item "COc1cc(/C=C/C(=O)OC[C@H](C)CN(C)CCCOC(=O)c2cc(OC)c(OC)c(OC)c2)cc(OC)c1OC" has what recorded half-life at 1 µM?
Result: 1.95 h

Task: "COc1cc(/C=C/C(=O)OCCCCCCCN(C)C[C@@H](C)COC(=O)c2c3ccccc3cc3ccccc23)cc(OC)c1OC" , same question.
Result: ≥ 4 h

Task: Item: "COc1cc(/C=C/C(=O)OCCCCCN(C)C[C@H](C)COC(=O)c2cc(OC)c(OC)c(OC)c2)cc(OC)c1OC"
Result: ≥ 4 h

Task: # repeat for "COc1cc(/C=C/C(=O)OC[C@@H](C)CN(C)CCCCCCCOC(=O)c2c3ccccc3cc3ccccc23)cc(OC)c1OC"
Result: ≥ 4 h

Task: How about this compound: "COc1cc(/C=C/C(=O)OC[C@@H](C)CN(C)CCCCCCCOC(=O)c2cc(OC)c(OC)c(OC)c2)cc(OC)c1OC"
Result: 0.5 h

Task: Could you do the same for "COc1cc(/C=C/C(=O)OC[C@@H](C)CN(C)CCCOC(=O)c2cc(OC)c(OC)c(OC)c2)cc(OC)c1OC" , please?
Result: 0.483 h

Task: What about this compound? "COc1cc(/C=C/C(=O)OCCCN(C)C[C@@H](C)COC(=O)c2c3ccccc3cc3ccccc23)cc(OC)c1OC"
Result: ≥ 4 h

Task: Same for "COc1cc(/C=C/C(=O)OCCCCCCCN(C)C[C@H](C)COC(=O)c2c3ccccc3cc3ccccc23)cc(OC)c1OC"
Result: ≥ 4 h

Task: Thanks! And "COc1cc(/C=C/C(=O)OC[C@H](C)CN(C)CCCCCCCOC(=O)c2cc(OC)c(OC)c(OC)c2)cc(OC)c1OC" ?
Result: 1.23 h

Task: Another compound to check: "COc1cc(/C=C/C(=O)OCCCN(C)C[C@H](C)COC(=O)c2cc(OC)c(OC)c(OC)c2)cc(OC)c1OC"
Result: ≥ 4 h

Task: Field entry: "COc1cc(/C=C/C(=O)OC[C@H](C)CN(C)CCCCCOC(=O)c2cc(OC)c(OC)c(OC)c2)cc(OC)c1OC"
Result: 0.483 h

Task: Queued: "COc1cc(/C=C/C(=O)OCCCCCCCN(C)C[C@H](C)COC(=O)c2cc(OC)c(OC)c(OC)c2)cc(OC)c1OC"
Result: ≥ 4 h
